Where do these numbers come from? They come from the supplement of paper PMC10567573.

B1: TRIM43 (parent)
chain: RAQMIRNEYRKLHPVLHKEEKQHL

Variants of: B1
methodSummary: protein stability index of a GFP-peptide fusion (GPS, HEK-293T) (PSI 1-6); higher = more stable;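 also: lentivirally expressed fusions sorted by FACS into six bins by GFP to DsRed ratio, PSI derived from sequencing read proportions per bin multiplied by bin number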
runParameters: c terminus: a fixed tail appended
observationType: protein stability index
# print the numeric value only

(Q) Any idea what its protein stability index is? The variant is P14F
(A) 2.95

(Q) Looking for the measured protein stability index of E20K , can you help?
(A) 2.95

(Q) Which protein stability index is reported for this variant? H13C
(A) 3

(Q) Quick one: protein stability index of K21W ?
(A) 2.51

(Q) Need protein stability index, item P14Q
(A) 2.51

(Q) # get_value(readout='protein stability index', item= K11Q )
(A) 3.51

(Q) If you can, please state the reported protein stability index value of K18W .
(A) 2.44

(Q) So what does the record say about protein stability index for V15K ?
(A) 3.29

(Q) Find the recorded protein stability index belonging to H17Q and report it.
(A) 3.07

(Q) What protein stability index value was documented for this variant, M4K ?
(A) 3.2

(Q) Which protein stability index value is on record for E8Y ?
(A) 2.51

(Q) Bench note: what protein stability index did Q3A show?
(A) 2.67

(Q) Form field: reported protein stability index of L12Q
(A) 3.36

(Q) What value of protein stability index has been reported for the following variant? H13I
(A) 2.92

(Q) Which protein stability index value is on record for H23W ?
(A) 2.61

(Q) // returns reported protein stability index for input N7R
(A) 3.15

(Q) For H13V , what is its reported protein stability index?
(A) 3.11

(Q) Recorded protein stability index of E8S , please.
(A) 2.91

(Q) Return reported protein stability index; argument: H17G
(A) 3.56

(Q) So what does the record say about protein stability index for H23S ?
(A) 3.45

(Q) Please give the measured protein stability index for this variant: N7Q
(A) 3.33

(Q) Using the record for P14R , report its protein stability index.
(A) 3.23

(Q) Could you tell me which protein stability index is on file for Q22I ?
(A) 2.54

(Q) Using the record for E19F , report its protein stability index.
(A) 1.98

(Q) Which measured protein stability index value corresponds to L12S ?
(A) 4.43
